From: patent US20020137929A1

- System: TRZAWR (Wheat, Winter, cv Riband)
- Experiment summary: Preemergence herbicidal evaluation
- Format: in vivo, Triticum aestivum
- Condition summary: rate 0.0625 kg/ha; rated 4-5 weeks after treatment
Observed property: TRZAWR preemergence herbicidal rating
Answers are plain numbers.

Solved cases below.
[[record]]
compound = "CC1SC(=Nc2cc(-n3c(=O)cc(C(F)(F)F)n(C)c3=O)c(F)cc2Cl)N(C)C1=O (stereo not shown)"
observed_property = "TRZAWR preemergence herbicidal rating"
observed_measurement = 7.5

[[record]]
compound = "CN1C(=O)CSC1=Nc1cc(N2C(=O)C3=C(CCCC3)C2=O)c(F)cc1Cl"
observed_property = "TRZAWR preemergence herbicidal rating"
observed_measurement = 4.0

[[record]]
compound = "O=C1CSC(=Nc2cc(N3C(=O)C4=C(CCCC4)C3=O)c(F)cc2Cl)N1c1ccccc1"
observed_property = "TRZAWR preemergence herbicidal rating"
observed_measurement = 0.0


Inquiry: Bench note: what TRZAWR preemergence herbicidal rating did COC(=O)CN1C(=O)CSC1=Nc1cc(-n2c(=O)cc(C(F)(F)F)n(C)c2=O)c(F)cc1Cl show?
Reply text: 0.0

---

- Test system: ECHCG (Barnyardgrass)
- Experiment summary: Postemergence herbicidal evaluation
- Type: in vivo, Echinochloa crus-galli
- Condition summary: Rate 0.0315 kg/ha
Observed property: Postemergence herbicidal rating ECHCG

[[record]]
compound = "CCOP(=O)(CN1C(=O)CSC1=Nc1cc(-n2c(=O)cc(C(F)(F)F)n(C)c2=O)c(F)cc1Cl)OCC"
observed_property = "Postemergence herbicidal rating ECHCG"
observed_measurement = 0.0

[[record]]
compound = "Cn1c(C(F)(F)F)cc(=O)n(-c2cc(N=C3SCC(=O)N3[C@@H](Cc3ccccc3)C(=O)O)c(Cl)cc2F)c1=O"
observed_property = "Postemergence herbicidal rating ECHCG"
observed_measurement = 3.0

[[record]]
compound = "Cn1c(C(F)(F)F)cc(=O)n(-c2cc(N=C3SCC(=O)N3CCC(=O)O)c(Cl)cc2F)c1=O"
observed_property = "Postemergence herbicidal rating ECHCG"
observed_measurement = 0.0

[[record]]
compound = "CCOC(=O)CN1C(=O)C(CC(=O)OCc2ccccc2)OC1=Nc1cc(-n2c(=O)cc(C(F)(F)F)n(C)c2=O)c(F)cc1Cl (stereo not drawn)"
observed_property = "Postemergence herbicidal rating ECHCG"
observed_measurement = 7.0

[[record]]
compound = "CCOC(=O)CN1CCSC1=Nc1cc(-n2nc(C)n(C(F)F)c2=O)c(F)cc1Cl"
observed_property = "Postemergence herbicidal rating ECHCG"
observed_measurement = 2.0


Inquiry: Name the reported Postemergence herbicidal rating ECHCG value associated with the compound CCOC(=O)CN1C(=O)C(CC(=O)O)O/C1=N/c1cc(-n2c(=O)cc(C(F)(F)F)n(C)c2=O)c(F)cc1Cl (stereo not drawn)
Reply text: 7.0

---

- Test system: ABUTH (Velvetleaf)
- Experiment summary: Postemergence herbicidal evaluation
- Type: in vivo, Abutilon theophrasti
- Condition summary: Rate 0.0158 kg/ha
Can you tell me Postemergence herbicidal rating ABUTH for the items I'm about to list?
Give bare numbers.

[[record]]
compound = "CCOC(=O)CN1C(=O)C(CC(=O)OCc2ccccc2)OC1=Nc1cc(-n2c(=O)cc(C(F)(F)F)n(C)c2=O)c(F)cc1Cl (stereo not drawn)"
observed_measurement = 9.0


Would you be so kind as to report Postemergence herbicidal rating ABUTH for each listed record?
1. Cn1c(C(F)(F)F)cc(=O)n(-c2cc(/N=C3/SCC(=O)N3CC(=O)O)c(Cl)cc2F)c1=O
2. Cn1c(C(F)(F)F)cc(=O)n(-c2cc(N=C3SCC(=O)N3[C@@H](Cc3ccccc3)C(=O)O)c(Cl)cc2F)c1=O
3. CCOC(=O)CN1C(=O)C(CC(=O)OC(C)C)SC1=Nc1cc(-n2c(=O)cc(C(F)(F)F)n(C)c2=O)c(F)cc1Cl (stereo not drawn)
4. Cn1c(C(F)(F)F)cc(=O)n(-c2cc(N=C3SCC(=O)N3CCC(=O)O)c(Cl)cc2F)c1=O

Reply text:
1.0
9.0
9.0
9.0

Inquiry: Entry CCOP(=O)(CN1C(=O)CSC1=Nc1cc(-n2c(=O)cc(C(F)(F)F)n(C)c2=O)c(F)cc1Cl)OCC has what Postemergence herbicidal rating ABUTH?
Reply text: 9.0
